Target: ER beta receptor (Homo sapiens)
Construct: purchased PanVera
Sequence (Q92731 whole entry): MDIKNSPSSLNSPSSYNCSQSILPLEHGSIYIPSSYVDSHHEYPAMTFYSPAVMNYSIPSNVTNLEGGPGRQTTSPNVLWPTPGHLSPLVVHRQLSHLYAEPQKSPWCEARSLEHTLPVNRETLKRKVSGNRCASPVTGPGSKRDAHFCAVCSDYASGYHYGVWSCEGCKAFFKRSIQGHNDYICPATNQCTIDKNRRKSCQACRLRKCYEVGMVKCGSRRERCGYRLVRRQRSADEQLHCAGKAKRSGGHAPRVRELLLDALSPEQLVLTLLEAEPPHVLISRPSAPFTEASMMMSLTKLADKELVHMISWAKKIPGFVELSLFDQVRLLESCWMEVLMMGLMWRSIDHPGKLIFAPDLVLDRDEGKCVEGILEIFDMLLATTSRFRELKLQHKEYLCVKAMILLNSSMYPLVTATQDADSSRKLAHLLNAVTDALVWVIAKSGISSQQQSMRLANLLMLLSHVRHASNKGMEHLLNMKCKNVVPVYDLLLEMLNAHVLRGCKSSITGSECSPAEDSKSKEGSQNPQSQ
Assay: Competition ER binding assay (3H-Estradiol displacement)
TEST READOUT: activity in the ER binding assay

Oc1ccc2c(c1)[C@H]1CCC[C@H]1[C@@H](c1ccc(C(F)(F)F)cc1)O2 (racemic) :: active
Cc1ccc([C@H]2Oc3ccc(O)cc3[C@H]3CCC[C@H]32)cc1 (racemic) :: active
CCc1ccc([C@H]2Oc3ccc(O)cc3[C@H]3CCC[C@H]32)cc1 (racemic) :: active
Oc1ccc2c(c1)[C@H]1CCC[C@H]1[C@@H](c1ccc(F)cc1)O2 (racemic) :: active
